Measured IC50 by item
Molecular target: rat NaPi-2b (Rattus norvegicus)
Sequence (Q9JJ09 whole entry): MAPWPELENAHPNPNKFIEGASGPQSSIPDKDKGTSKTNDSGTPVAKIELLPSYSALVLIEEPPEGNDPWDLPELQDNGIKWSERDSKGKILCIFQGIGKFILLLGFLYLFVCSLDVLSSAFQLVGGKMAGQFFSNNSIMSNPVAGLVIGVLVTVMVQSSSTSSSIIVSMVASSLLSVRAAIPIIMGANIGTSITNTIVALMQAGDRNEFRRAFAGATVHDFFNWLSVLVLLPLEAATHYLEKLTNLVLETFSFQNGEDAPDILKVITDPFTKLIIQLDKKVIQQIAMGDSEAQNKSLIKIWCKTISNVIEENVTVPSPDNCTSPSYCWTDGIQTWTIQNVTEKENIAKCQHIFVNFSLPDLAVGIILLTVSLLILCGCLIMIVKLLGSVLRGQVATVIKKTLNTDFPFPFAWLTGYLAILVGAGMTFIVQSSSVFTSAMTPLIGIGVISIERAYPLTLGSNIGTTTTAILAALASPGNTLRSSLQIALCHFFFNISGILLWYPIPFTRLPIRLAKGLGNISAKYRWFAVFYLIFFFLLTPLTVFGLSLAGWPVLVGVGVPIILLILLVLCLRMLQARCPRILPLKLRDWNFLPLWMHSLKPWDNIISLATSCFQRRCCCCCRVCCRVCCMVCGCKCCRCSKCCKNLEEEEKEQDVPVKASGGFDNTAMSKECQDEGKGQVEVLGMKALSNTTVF
Assay: Sodium-dependent phosphate uptake of Xenopus oocytes which expressed NaPi-2b (32P)
Conditions: Xenopus oocytes expressing rat NaPi-2b, 32P radioactive phosphorus; read-out: IC50 (phosphate uptake inhibitory activity)
Counter-ions that a name gives are not always drawn.
endpointLabel: IC50 (µM)

1. CCN(CC)CCNCc1cccc(C(=O)Nc2sc3c(c2C(=O)N/N=C/c2ccc(C)c(C)c2)CCC3)c1 [Compound 810] : 6.68
2. COCCOc1cc(NC(=O)c2cccc(CSCC(O)CO)c2)c(C(=O)N/N=C/c2ccc(C)c(C)c2)cc1OCCOC (stereo not shown) [Compound 1015] : 11.1
3. Cc1ccc(/C=N/NC(=O)c2cc(Br)ccc2NC(=O)c2ccc(CSCCCO)cc2)cc1C [Compound 273] : 0.15
4. CCN(CCO)Cc1ccc(C(=O)Nc2ccc(Cl)cc2C(=O)N/N=C/c2ccc(C)cc2)cc1 [Compound 435] : 7.65
5. Cc1csc(NC(=O)c2cccc(CN(CC(C)O)CC(C)O)c2)c1C(=O)N/N=C/c1ccc(Cl)c(C(F)(F)F)c1 (stereo not shown) [Compound 851, hydrochloride] : 1.36
